Some compounds, each annotated with its measured IC50.
# Tested on: H226B cells
# test.description: Cell viability, H226B lung cancer cells
# Assay type: cell-based, human
# test.context: Homo sapiens, read-out: IC50 (−LogM), H226B, Lung, second H226B line (converted)
observed.property: IC50 (µM)

- compound.structure: "O=Cc1cn(Cc2ccc(Br)cc2)c2ccccc12"
  experimental.system: "H226B cells"
  observed.property: "IC50"
  measured.result: 5.01
- compound.structure: "O=Cc1cn(Cc2cccc([N+](=O)[O-])c2)c2ccccc12"
  experimental.system: "H226B cells"
  observed.property: "IC50"
  measured.result: 0.0631
- compound.structure: "O=Cc1cn(Cc2ccccc2)c2ccccc12"
  experimental.system: "H226B cells"
  observed.property: "IC50"
  measured.result: 31.6
- compound.structure: "O=Cc1cn(Cc2cccc(C(F)(F)F)c2)c2ccccc12"
  experimental.system: "H226B cells"
  observed.property: "IC50"
  measured.result: 10
- compound.structure: "O=Cc1cn(Cc2cccc(Cl)c2)c2ccccc12"
  experimental.system: "H226B cells"
  observed.property: "IC50"
  measured.result: 3.98
- compound.structure: "O=Cc1cn(Cc2ccccc2F)c2ccccc12"
  experimental.system: "H226B cells"
  observed.property: "IC50"
  measured.result: 10

* * *

# Test system: AsPC-1
# test.description: Cell viability, AsPC-1 pancreatic cancer cells
# Format: cell-based, human
# test.context: Homo sapiens; ASPC1, Pancrease; read-out: IC50 (−LogM) (converted)
observed.property: IC50 (µM)

- compound: "O=[N+]([O-])c1cccc(Cn2cc(CO)c3ccccc32)c1 [Oncrasin K69]"
  measured.result: 7.94
- compound: "OCc1cn(Cc2ccccc2Cl)c2ccccc12 [Oncrasin K006]"
  measured.result: 3.98
- compound: "OCc1cn(Cc2ccc(Cl)cc2)c2ccccc12 [Oncrasin K060]"
  measured.result: 2
- compound: "OCc1cn(Cc2ccc(Cl)c(Cl)c2)c2ccccc12 [Oncrasin K049]"
  measured.result: 10
- compound: "OCc1cn(Cc2cccc(C(F)(F)F)c2)c2ccccc12 [Oncrasin K63]"
  measured.result: 10
- compound: "O=[N+]([O-])c1ccc(Cn2cc(CO)c3ccccc32)cc1 [Oncrasin K71]"
  measured.result: 10

* * *

# Tested on: H1299 cells
# test.description: Cell viability, H1299 lung cancer cells
# Type: cell-based, human
# test.context: Homo sapiens, NCI-H1299, read-out: IC50 (−LogM), h1299, Lung (converted)
Some molecules, each annotated with its measured IC50.

- compound.structure: "O=Cc1cn(Cc2ccc(Br)cc2)c2ccccc12"
  IC50: "12.6 µM"
- compound.structure: "O=Cc1cn(Cc2cccc(C(F)(F)F)c2)c2ccccc12"
  IC50: "10 µM"
- compound.structure: "O=Cc1cn(Cc2cccc([N+](=O)[O-])c2)c2ccccc12"
  IC50: "10 µM"
- compound.structure: "O=Cc1cn(Cc2ccccc2F)c2ccccc12"
  IC50: "7.94 µM"
- compound.structure: "O=Cc1cn(Cc2cccc(Cl)c2)c2ccccc12"
  IC50: "15.8 µM"

* * *

# Tested on: T29Kt1 cells
# test.context: Table 1; value is the negative log10 of mol/L

- molecule: "O=C1C(=Cc2ccccn2)c2ccccc2N1Cc1ccccc1 [Oncrasin K046]"
  IC50 in T29k cells: 5.3
- molecule: "Cc1ccc(Cn2cc(CO)c3ccccc32)cc1 [Oncrasin K67]"
  IC50 in T29k cells: 6.1
- molecule: "OCc1cn(Cc2cccc(Cl)c2)c2ccccc12 [Oncrasin K72]"
  IC50 in T29k cells: 5.75
- molecule: "O=Cc1cn(Cc2ccc(Br)cc2)c2ccccc12 [Oncrasin K029]"
  IC50 in T29k cells: 5
- molecule: "O=Cc1cn(Cc2ccc(Cl)cc2Cl)c2ccccc12 [Oncrasin K050]"
  IC50 in T29k cells: 5.8
- molecule: "OCc1cn(Cc2ccc(Br)cc2)c2ccccc12 [Oncrasin K73]"
  IC50 in T29k cells: 6.4
- molecule: "NC(=S)NN=Cc1cn(Cc2ccccc2)c2ccccc12 [Oncrasin K031]"
  IC50 in T29k cells: 5
- molecule: "O=Cc1cn(Cc2ccc(Cl)cc2)c2ccccc12 [Oncrasin K001]"
  IC50 in T29k cells: 5.6
- molecule: "O=S(=O)(Nc1nccs1)c1ccc(N=Cc2cn(Cc3ccccc3)c3ccccc23)cc1 [Oncrasin K042]"
  IC50 in T29k cells: 6
- molecule: "O=Cc1cn(Cc2cccc(Cl)c2)c2ccccc12 [Oncrasin K027]"
  IC50 in T29k cells: 6.43

* * *

# Test system: H460 cells
# test.context: read-out: IC50, H460 cells; K-Ras Q61H

- compound.structure: "O=Cc1cn(Cc2ccc(Cl)cc2)c2ccccc12"
  experimental.system: "H460 cells"
  value.unit: "nM"
  IC50: 250

* * *

# Tested on: HKE3
# test.description: Cell viability, HKE3 colon cancer cells
# Format: cell-based, human
# test.context: Homo sapiens, HKE3, Colon, second HKE3 line; read-out: IC50 (−LogM) (converted)
Some molecules, each annotated with its measured IC50.
observed.property: IC50 (nM)

- molecule: "OCc1cn(Cc2cccc(C(F)(F)F)c2)c2ccccc12 [Oncrasin K63]"
  censoring.operator: "="
  measured.result: 1580
- molecule: "OCc1cn(Cc2ccc(Cl)cc2)c2ccccc12 [Oncrasin K060]"
  censoring.operator: "<"
  measured.result: 3.16
- molecule: "O=[N+]([O-])c1ccc(Cn2cc(CO)c3ccccc32)cc1 [Oncrasin K71]"
  censoring.operator: "="
  measured.result: 200
- molecule: "OCc1cn(Cc2ccc(Cl)c(Cl)c2)c2ccccc12 [Oncrasin K049]"
  censoring.operator: "="
  measured.result: 3.16
- molecule: "O=[N+]([O-])c1cccc(Cn2cc(CO)c3ccccc32)c1 [Oncrasin K69]"
  censoring.operator: "="
  measured.result: 1000
- molecule: "OCc1cn(Cc2ccccc2Cl)c2ccccc12 [Oncrasin K006]"
  censoring.operator: "="
  measured.result: 251

* * *

# Tested on: Capanc-1
# test.description: Cell viability, Capanc-1 pancreatic cancer cells
# Format: cell-based, human
# test.context: K-Ras G12V mutation; read-out: IC50, Capanc-1

- molecule: "O=Cc1cn(Cc2ccc(Cl)cc2)c2ccccc12 [Oncrasin K001]"
  value.unit: "µM"
  IC50: 0.42

* * *

# Tested on: T29Kt1 cells
# test.context: read-out: IC50, T29Kt1 cells; dose-dependent cytotoxicity
pIC50: −log10 of the molar value.

- compound.structure: "O=Cc1cn(Cc2ccc(Cl)cc2)c2ccccc12"
  pIC50: 5.60

* * *

Some molecules, each annotated with its measured IC50.
# Test system: A549 cells
# test.description: Cell viability, A549 lung cancer cells
# Type: cell-based, human
# test.context: Homo sapiens, A549, read-out: IC50 (−LogM), A549, Lung (converted)

- compound.structure: "O=Cc1cn(Cc2ccccc2)c2ccccc12"
  value.unit: "µM"
  IC50: 31.6
- compound.structure: "O=Cc1cn(Cc2cccc([N+](=O)[O-])c2)c2ccccc12"
  value.unit: "µM"
  IC50: 5.01
- compound.structure: "O=Cc1cn(Cc2cccc(C(F)(F)F)c2)c2ccccc12"
  value.unit: "µM"
  IC50: 10
- compound.structure: "O=Cc1cn(Cc2cccc(Cl)c2)c2ccccc12"
  value.unit: "µM"
  IC50: 10
- compound.structure: "O=Cc1cn(Cc2ccccc2F)c2ccccc12"
  value.unit: "µM"
  IC50: 12.6

* * *

# Test system: H1299 cells
# test.description: Cell viability, H1299 lung cancer cells
# Assay type: cell-based, human
# test.context: Homo sapiens, NCI-H1299; h1299, Lung; read-out: IC50 (−LogM) (converted)
observed.property: IC50 (µM)

- compound.structure: "OCc1cn(Cc2ccc(Cl)c(Cl)c2)c2ccccc12"
  value.unit: "µM"
  measured.result: 10
- compound.structure: "O=[N+]([O-])c1ccc(Cn2cc(CO)c3ccccc32)cc1"
  value.unit: "µM"
  measured.result: 10
- compound.structure: "OCc1cn(Cc2ccccc2Cl)c2ccccc12"
  value.unit: "µM"
  measured.result: 10
- compound.structure: "OCc1cn(Cc2ccc(Cl)cc2)c2ccccc12"
  value.unit: "µM"
  measured.result: 3.16

* * *

# Test system: T29Kt1 cells
# test.description: cells
# test.context: Homo sapiens, T29Kt1, read-out: IC50 in T29k cells
Counter-ions that a name gives are not always drawn.

- compound: "COc1ccc2c(c1)c(CCN)c(C)n2Cc1ccccc1 [Oncrasin K005, hydrochloride]"
  IC50: "15.8 µM"
